# credit: patent US11339161B2

biological target: CDK5/p35 (Homo sapiens); test: Z'-LYTE SelectScreen biochemical kinase assay CDK5/p35; details: read-out: % Inhibition mean CDK5/p35
Sequence (Q00535 whole entry): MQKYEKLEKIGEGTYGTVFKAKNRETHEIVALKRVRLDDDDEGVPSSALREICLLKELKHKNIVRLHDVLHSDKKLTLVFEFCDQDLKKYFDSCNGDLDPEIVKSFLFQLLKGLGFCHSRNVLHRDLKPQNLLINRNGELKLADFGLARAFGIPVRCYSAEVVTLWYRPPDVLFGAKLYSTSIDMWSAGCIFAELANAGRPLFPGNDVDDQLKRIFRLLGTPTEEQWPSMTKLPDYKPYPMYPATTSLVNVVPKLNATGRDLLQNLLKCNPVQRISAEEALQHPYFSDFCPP
Sequence (Q15078 whole entry partner): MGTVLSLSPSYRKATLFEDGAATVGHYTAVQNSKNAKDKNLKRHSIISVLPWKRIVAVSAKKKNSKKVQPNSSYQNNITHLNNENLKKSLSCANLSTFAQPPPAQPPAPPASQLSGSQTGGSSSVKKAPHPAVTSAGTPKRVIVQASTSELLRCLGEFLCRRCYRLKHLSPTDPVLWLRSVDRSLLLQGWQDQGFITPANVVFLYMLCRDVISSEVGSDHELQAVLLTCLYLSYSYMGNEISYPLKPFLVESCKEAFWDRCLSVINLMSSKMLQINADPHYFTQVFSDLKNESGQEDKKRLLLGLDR
Rule: True for inhibition at 10 µM not less than 40%, False for anything less.

API: above_or_equal(metric=inhibition at 10 µM, cutoff=40%) for item Cc1cc(F)ccc1-c1cccn2nc(NC3CCc4c(cnn4C(C)C)C3)nc12 (stereo not drawn) [Example 44] False

API: above_or_equal(metric=inhibition at 10 µM, cutoff=40%) for item CCn1ncc2c1CCC(Nc1nc3c(-c4cncc(OC)c4)cccn3n1)C2 (stereo not drawn) [Example 70] True

API: above_or_equal(metric=inhibition at 10 µM, cutoff=40%) for item Cc1cc(F)ccc1-c1cccn2nc(NC3CCc4cnn(C)c4C3)nc12 (stereo not drawn) [Example 40] True

API: above_or_equal(metric=inhibition at 10 µM, cutoff=40%) for item Cc1cc(F)ccc1-c1cccn2nc(NC3CCc4c(cnn4CC(C)C)C3)nc12 (stereo not drawn) [Example 45] False

API: above_or_equal(metric=inhibition at 10 µM, cutoff=40%) for item Cc1cc(F)ccc1-c1cccn2nc(Nc3ccc4c(cnn4C)c3)nc12 [Example 9] True

API: above_or_equal(metric=inhibition at 10 µM, cutoff=40%) for item CCn1ncc2c1CCC(Nc1nc3c(-c4cccnc4)cccn3n1)C2 (stereo not drawn) [Example 63] True

API: above_or_equal(metric=inhibition at 10 µM, cutoff=40%) for item CCCCCn1ncc2c1CCC(Nc1nc3c(-c4ccc(F)cc4C)cccn3n1)C2 (stereo not drawn) [Example 47] False

API: above_or_equal(metric=inhibition at 10 µM, cutoff=40%) for item CCn1nc(Cl)c2c1CCC(Nc1nc3c(-c4ccc(F)cc4C)cccn3n1)C2 (stereo not drawn) [Example 48] False

API: above_or_equal(metric=inhibition at 10 µM, cutoff=40%) for item CCCCn1ncc2c1CCC(Nc1nc3c(-c4ccc(F)cc4C)cccn3n1)C2 (stereo not drawn) [Example 46] False

API: above_or_equal(metric=inhibition at 10 µM, cutoff=40%) for item CCn1ncc2c1CCC(Nc1nc3c(-c4ccc(OC)nc4)cccn3n1)C2 (stereo not drawn) [Example 71] True

API: above_or_equal(metric=inhibition at 10 µM, cutoff=40%) for item CCn1ncc2c1CCC(Nc1nc3c(-c4cnccc4OC)cccn3n1)C2 (stereo not drawn) [Example 68] True

API: above_or_equal(metric=inhibition at 10 µM, cutoff=40%) for item CCn1ncc2c1CCC(Nc1nc3c(-c4ccc(C)nc4)cccn3n1)C2 (stereo not drawn) [Example 67] False

API: above_or_equal(metric=inhibition at 10 µM, cutoff=40%) for item CCn1ncc2c1CCC(Nc1nc3c(-c4cncc(Cl)c4)cccn3n1)C2 (stereo not drawn) [Example 73] True

API: above_or_equal(metric=inhibition at 10 µM, cutoff=40%) for item CCn1ncc2c1CCC(Nc1nc3c(-c4cccnc4OC)cccn3n1)C2 (stereo not drawn) [Example 69] False

API: above_or_equal(metric=inhibition at 10 µM, cutoff=40%) for item CCn1ncc2c1CCC(Nc1nc3c(-c4cccc(Cl)c4)cccn3n1)C2 (stereo not drawn) [Example 59] False

API: above_or_equal(metric=inhibition at 10 µM, cutoff=40%) for item CCCn1ncc2c1CCC(Nc1nc3c(-c4ccc(F)cc4C)cccn3n1)C2 (stereo not drawn) [Example 43] False

API: above_or_equal(metric=inhibition at 10 µM, cutoff=40%) for item CCn1ncc2c1CC[C@H](Nc1nc3c(-c4ccc(F)c(Cl)c4)cccn3n1)C2 [Example S-61] False

API: above_or_equal(metric=inhibition at 10 µM, cutoff=40%) for item Cc1cc(F)ccc1-c1cccn2nc(NC3CCc4c(cnn4C)C3)nc12 (stereo not drawn) [Example 10] True

API: above_or_equal(metric=inhibition at 10 µM, cutoff=40%) for item CCn1ncc2c1C(C)CC(Nc1nc3c(-c4cc(F)c(F)c(F)c4)cccn3n1)C2 (stereo not drawn) [Example 49] False

API: above_or_equal(metric=inhibition at 10 µM, cutoff=40%) for item CCn1ncc2c1CCC(Nc1nc3c(-c4ccc(F)cc4)cccn3n1)C2 (stereo not drawn) [Example 55] False

API: above_or_equal(metric=inhibition at 10 µM, cutoff=40%) for item CCn1ncc2c1CC[C@@H](Nc1nc3c(-c4ccc(F)c(Cl)c4)cccn3n1)C2 [Example R-61] False

API: above_or_equal(metric=inhibition at 10 µM, cutoff=40%) for item CCn1ncc2c1CCC(Nc1nc3c(-c4ccccc4)cccn3n1)C2 (stereo not drawn) [Example 57] False

API: above_or_equal(metric=inhibition at 10 µM, cutoff=40%) for item CCn1nnc2c1CCC(Nc1nc3c(-c4ccc(F)cc4C)cccn3n1)C2 (stereo not drawn) [Example 51] False

API: above_or_equal(metric=inhibition at 10 µM, cutoff=40%) for item CCc1nn(C)c2c1CCC(Nc1nc3c(-c4ccc(F)cc4C)cccn3n1)C2 (stereo not drawn) [Example 54] False

API: above_or_equal(metric=inhibition at 10 µM, cutoff=40%) for item CCn1ncc2c1CCC(Nc1nc3c(-c4ccccc4C)cccn3n1)C2 (stereo not drawn) [Example 56] True
